- Tested on: A375, A431, A549, MRC-5 cells
- protocol: Photocytotoxicity assay, summary across cell lines
- Type: cell-based
- testContext: range across all tested cell lines
readout: EC50

In: Quick one: EC50 for [NH2][Pt]([NH2])([Cl])[Cl] [CDDP, cisplatin] ?
Out: 850 to 3060 nM

* * *

- protocol: Solubility in demineralized water
- Format: physicochemical
- testContext: read-out: maximum solubility
readout: solubility (µM)
Give just the numeric value; µM need not be written.

In: Quick one: solubility for CSCCCc1nc(=O)c2c(-c3ccccc3)c(C(=O)c3ccccc3)[nH]c2[nH]1 ?
Out: 10
